- test protocol: Central nervous system (CNS) penetration study in mice
- Assay type: in vivo
- condition set: female, BALB/cCrSlc, mouse, ip, 30 mg/kg intraperitoneally, three hours later, cerebrum and plasma by LC-MS/MS, read-out: Brain-to-plasma concentration ratio (Kp value)
measured metric: Kp at 3 h

C[C@@H]1CC(C(=O)c2cn(CC#N)c3nc(-n4nccn4)c(Cl)cc23)C[C@@H](C)N1c1ncc(F)cc1I (stereo partly shown) [Example 3] = 0.73
CCn1cc(C(=O)C2C[C@@H](C)N(c3ncc(F)cc3I)[C@H](C)C2)c2cc(Cl)c(-n3nccn3)nc21 (stereo partly shown) [Example 14] = 0.74

a = CCn1cc(C(=O)c2cnn(-c3cncc4c(F)cccc34)c2C(F)(F)F)c2cc(Cl)c(-n3nccn3)nc21 [Example 7]
b = CC(C)n1cc(C(=O)C2C[C@@H](C)N(c3ncc(F)cc3I)[C@H](C)C2)c2cc(Cl)c(-n3nccn3)nc21 (stereo partly shown) [Example 17]
Compare a and b and name the one whose reported Kp at 3 h is smaller. Output the label that corresponds to your choice.
b
(b: 0.26, a: 0.52)
